# assay method text: S. cerevisiae RM11-1a growth modifiers, primary screen, strain RM11-1a, OD600, basal, 24 h (AID 1177);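 note: cultures grown under basal conditions with no added stressor; test concentration not given here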
# recorded conditions: OD600, 24 h, higher = more signal, called active from +8 up or from −8 down
Field: z-score. Provide a value for each of the compounds that follow.
Numbers only.

# example entries with known answers
>  <compound>
COc1ccc([Si](C)(C)[C@@H]2[C@@H](CCO)O[C@]3(C(=O)N(Cc4cccc(N5C(=O)c6ccccc6Oc6ccccc65)c4)c4ccccc43)[C@H]2C)cc1

>  <z-score>
5.08

$$$$
>  <compound>
NCCCCCCNC(=O)[C@H]1C[C@H]2C(=O)N[C@@H](Cc3ccccc3)C(=O)N2[C@H]1c1ccc(O)cc1

>  <z-score>
-1.27

$$$$
>  <compound>
CC(C)C[C@@H]1NC(=O)[C@H]2C[C@@H](C(=O)NCCCCCC[N+](C)(C)C)[C@@H](c3cccc(OCCO)c3)N2C1=O

>  <z-score>
-0.215

$$$$
>  <compound>
CC(C)CN1C(=O)[C@@]2(c3ccc([N+](=O)[O-])cc3)CC(=O)N(CC34CC5CC(CC(C5)C3)C4)[C@@H]2c2ccc(CO)cc21

>  <z-score>
-0.855

$$$$
>  <compound>
O=C1OC[C@@H](c2ccccc2)N2CC(/C=C/c3ccccc3)=CC12 (stereo partly specified)

>  <z-score>
0.388

$$$$
>  <compound>
COCCOC(=O)N1C(=O)[C@@]2(c3cc(C#CC4=CCCCC4)ccc31)[C@H](C(=O)N1CCN(c3ncccn3)CC1)[C@H]1C(=O)O[C@H](c3ccccc3)[C@H](c3ccccc3)N1[C@@H]2c1ccc(O)cc1

>  <z-score>
1.69

$$$$

State recorded z-score for all listed compounds.
1. CC(C)C(=C=CC[C@H](O)c1ccc(OCCO)cc1)C[C@H](O)c1cc(Cl)cc(Cl)c1O
2. COCCOC(=O)N1C(=O)[C@@]2(c3cc(C#CC4(O)CCCCCC4)ccc31)[C@H](c1ccccc1OCCO)N1[C@H](c3ccccc3)[C@H](c3ccccc3)OC(=O)[C@H]1[C@@H]2C(N)=O
3. COc1ccc(NN2C(C(O)c3ccccn3)C=CC3C(=O)N(C4CCCCC4)C(=O)C32)cc1 (stereo unspecified)
4. COc1ccc(NN2C(C(O)c3ccco3)C=CC3C(=O)N(C4CCCCC4)C(=O)C32)cc1 (stereo unspecified)

Found:
[-0.2, 2.91, 0.219, -0.0552]

Each compound below has a reported value. Please supply its z-score.
1. C=CCNC(=O)[C@@H]1[C@H]2C(=O)O[C@H](c3ccccc3)[C@H](c3ccccc3)N2[C@H](c2ccccc2OCCO)[C@@]12C(=O)N(C(=O)OCCOC)c1ccc(C#CC3=CCCCC3)cc12
2. C=CCOC(=O)[C@H]1[C@@H]2C(=O)O[C@@H](c3ccccc3)[C@@H](c3ccccc3)N2[C@@H](c2ccc(OCCOC(=O)[C@H]3C[C@H]4C(=O)N[C@@H](Cc5ccccc5)C(=O)N4[C@H]3c3cccc(OCCO)c3)cc2)[C@]12C(=O)Nc1ccc(I)cc12
3. CCOC(=O)C1=CC[C@@H](c2ccccc2)N(S(=O)(=O)c2ccc(C)cc2)C1
4. O=C1O[C@@H](c2ccccc2)[C@@H](c2ccccc2)N2[C@@H](c3ccccc3OCCO)[C@]3(C(=O)Nc4ccc(C#CCCO)cc43)[C@@H](C(=O)Nc3nc4ccccc4s3)[C@H]12
5. CCCN1C(=O)[C@]2(Cc3ccccc3)N=C(c3ccc(OCCCO)cc3)O[C@@H]2c2ccccc21
6. CC(C)CCC[C@@H](C)[C@H]1CC[C@@]2(C)C3=C(CC[C@]12C)[C@@]1(C)CC[C@H](OC(=O)c2ccc(Br)cc2)C(C)(C)C1CC3 (stereo partly specified)

Found:
1: 1.08; 2: 1.04; 3: 1.82; 4: 2.39; 5: 0.931; 6: -1.7

List z-score for every entry below, keeping the order given.
1. C[C@H]1ON(c2ccc(C(=O)OC(C)(C)C)cc2)[C@@H](c2ccc(O)cc2)[C@@H]1C(=O)N1C(=O)OC[C@@H]1c1ccccc1
2. COc1ccc([Si](C)(C)[C@@H]2[C@@H](CC(=O)N3CCC[C@H]3CO)O[C@]3(C(=O)N(Cc4ccc(N5C(=O)c6cccc7cccc5c67)cc4)c4ccccc43)[C@H]2C)cc1
3. CCOC(=O)C[C@H]1[C@H](OC(=O)c2ccc(-c3ccccc3)cc2)[C@@H](NC(=O)C2CCCCC2)c2cc(OCCCO)ccc2N1C(=O)c1ccccc1
4. COc1cc(OC)c(C(O)C2C=CC3C(=O)N(c4ccccc4)C(=O)C3N2Nc2ccc(C#N)cc2)cc1Br (stereo unspecified)
5. COC(=O)[C@@]1(Cc2ccccc2)[C@H]2c3cc(C(=O)N4CCCC4)[nH]c3C[C@H]2CN1C(=O)c1ccccc1
6. COCCCNC(=O)[C@@]1(Sc2ccc(C)cc2)CC(=O)N(C2Cc3ccccc3C2)[C@@H]1c1ccc(CO)cc1I
7. O=C1C2C=CC(C(O)c3cc(C(F)(F)F)cc(C(F)(F)F)c3)N(Nc3ccc([N+](=O)[O-])cc3)C2C(=O)N1c1ccccc1 (stereo unspecified)

Found:
[0.759, 1.36, 0.925, -0.759, 0.198, -0.429, 0.565]

Required: z-score, one value per compound below.
1. CCOC(=O)C[C@H]1[C@H](OC(=O)Cc2ccc3c(c2)OCO3)[C@@H](NC(=O)C2CCCCC2)c2cc(OCCCO)ccc2N1C(=O)c1ccc2ccccc2n1
2. COc1cc(CO)cc(I)c1O[C@H]1C=C(C(=O)NCCO)C[C@@H](N(CC2CCCCC2)C(=O)c2ccc(C(F)(F)F)cc2)[C@@H]1O
3. COC(=O)Cn1c(C(=O)N2CCCC2)cc2c1C[C@H]1CN(C(=O)c3ccccc3)[C@@](Cc3ccc(F)cc3)(C(=O)OC)[C@@H]21

Found:
1: 0.133; 2: 0.183; 3: -1.54

// provenance: PubChem BioAssay
